Target: GTPase HRas (Homo sapiens) (UniProt P01112)
Sequence (P01112 whole entry, looked up): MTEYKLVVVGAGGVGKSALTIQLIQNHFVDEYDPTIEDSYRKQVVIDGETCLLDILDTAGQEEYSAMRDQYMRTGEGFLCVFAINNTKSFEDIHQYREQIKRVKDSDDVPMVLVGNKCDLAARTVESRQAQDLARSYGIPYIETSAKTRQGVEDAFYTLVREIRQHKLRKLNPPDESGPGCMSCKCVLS
Experiment: Ras wt fluorescent GTP loading blockade – biochemical, wildtype, multiplex bead flow cytometry, dose response (AID 1335)
Details: bead-based flow cytometry, Bodipy-GTP binding to GST-Ras; at 100 µM (top of the series) unless noted
The threshold is 80%. Values of GTP binding, percent of control beneath it are tagged Y; values meeting or exceeding it are tagged N.

{"Molecule": "Cc1ccc(N2C(=O)c3ccccc3C2Nc2cccnc2)nc1 (stereo unspecified)", "Qualitative Label": "N"}
{"Molecule": "Cc1cccn2c(=O)c(/C=C3\\SC(=S)N(CC(C)C)C3=O)c(NCCCOC(C)C)nc12", "Qualitative Label": "N"}
{"Molecule": "CCOC(=O)c1ccc(Nc2nc(C(=O)OCC)nc3ccccc23)cc1", "Qualitative Label": "N"}
{"Molecule": "Nc1nc2c(c(=O)[nH]1)C(c1cccc3ccccc13)C1=C(N2)c2ccccc2C1=O (stereo unspecified)", "Qualitative Label": "Y"}
{"Molecule": "Oc1ccc2ccccc2c1/C=N/Nc1nnc(-c2ncc[nH]2)c2ccccc12", "Qualitative Label": "Y"}
{"Molecule": "O=c1c2ccc([N+](=O)[O-])cc2ncn1CCOc1ccccc1", "Qualitative Label": "N"}
{"Molecule": "O=C(O)c1cccnc1OCc1ccccc1", "Qualitative Label": "N"}
{"Molecule": "O=c1c2ccccc2nc2ccc(NCc3cccs3)nn12", "Qualitative Label": "Y"}
{"Molecule": "C=CCNc1nc(=S)[nH]c2cc(OC)c(OC)cc12", "Qualitative Label": "Y"}

----------
Experiment: yeast AGP1-GFP level changes, GLN3 branch – cell-based, multiplex flow cytometry, S. cerevisiae, primary screen (AID 1887);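 further: AGP1-GFP fusion strain of S. cerevisiae within a five-strain barcoded multiplex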
Details: 3 h, at 10 µM, stronger effect = higher value
Results filed as inconclusive are left out.
Observable: GFP response, % of DMSO (%)

{"Molecule": "CC(C)N1C(=O)/C(=C\\c2nc3ccccc3c(=O)[nH]2)c2ccccc21", "Reported Measurement": 93.8}
{"Molecule": "C[C@H]([C@@H](N)C(=O)N[C@@H](C(=O)O)[C@@H]1O[C@H](n2ccc(=O)[nH]c2=O)[C@@H](O)[C@H]1O)[C@@H](O)c1ccc(O)cn1", "Reported Measurement": 84.5}
{"Molecule": "O=Cc1ccc(OC(=O)c2cccnc2)cc1", "Reported Measurement": 99.5}
{"Molecule": "O=C(CNC(=O)OCc1ccccc1)Oc1cc2oc(=O)cc(-c3ccccc3)c2cc1Cl", "Reported Measurement": 71.1}
{"Molecule": "COc1ccc(/C=C/C(=O)NC(=S)NN2CCCCC2c2cccnc2)cc1 (configuration not stated)", "Reported Measurement": 109}
{"Molecule": "CC(C)(C)c1ccc(/C=C/C(=O)N2CCCCC2)cc1", "Reported Measurement": 97.7}
{"Molecule": "c1ccc(-c2ccc(C(c3ccccc3)n3ccnc3)cc2)cc1 (configuration not stated)", "Reported Measurement": 111}
{"Molecule": "CCC(CO)NCCNC(CC)CO (configuration not stated)", "Reported Measurement": 97.7}
{"Molecule": "COc1ccc(Cc2noc(CN(C)CCN3CCc4ccccc4C3)n2)cc1OC", "Reported Measurement": 103}
{"Molecule": "O=C(O)CCCCCN=C1CCc2ccccc2N1", "Reported Measurement": 90.5}
{"Molecule": "CC(C)CN1CCN(Cc2cccn2-c2ccccn2)CC1CCO (configuration not stated)", "Reported Measurement": 95.9}
{"Molecule": "Cc1cnc(NC(=O)C2=C(O)c3ccccc3S(=O)(=O)N2C)s1", "Reported Measurement": 92.9}
{"Molecule": "CCOC(=O)C1=C(N)Oc2c(c(=O)[nH]c3ccccc23)C1c1ccccc1 (configuration not stated)", "Reported Measurement": 107}
{"Molecule": "CC(=O)Oc1ccc(C(c2ccc(OC(C)=O)cc2)c2ccccn2)cc1", "Reported Measurement": 117}
{"Molecule": "CCn1c(C)cc2c(c1=O)C(c1ccccc1)C(C(=O)OC)=C(N)O2 (configuration not stated)", "Reported Measurement": 111}
{"Molecule": "CC(C)OC(=O)C1C(=O)CC(C)(O)C(C(=O)OC(C)C)C1c1cccc(O)c1 (configuration not stated)", "Reported Measurement": 114}
{"Molecule": "CC12CC(c3ccccc3O1)C(C(=O)N1CCOCC1)C(=O)N2 (configuration not stated)", "Reported Measurement": 101}
{"Molecule": "O=C(NCCO)c1ccc2[nH]c3ccccc3c2c1", "Reported Measurement": 101}
{"Molecule": "CC(C)Oc1ccc(C2CC(=O)N(c3ccc(C(=O)O)cc3)C2=O)cc1 (configuration not stated)", "Reported Measurement": 122}
{"Molecule": "COc1ccc2c(c1OC)C(=O)N1C2SC[C@H]1C(=O)NC1CC(C)(C)NC(C)(C)C1 (some centres not stated)", "Reported Measurement": 93.1}
{"Molecule": "Cc1cc(O)c(C(C)C)cc1C1(c2cc(C(C)C)c(O)cc2C)OC(=O)c2ccccc21", "Reported Measurement": 108}
{"Molecule": "Cc1ccc(CN2CCN(CCCc3ccccc3)CC2CCO)cc1 (configuration not stated)", "Reported Measurement": 104}

----------
Assay: AML differentiation inducers, ER-HoxA9 marrow cells – cell-based, GFP/MAC1 double positive, flow cytometry, validation set, primary screen (AID 588685);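 further: compound exposure lasts four days before antibody staining and flow analysis; 0% = DMSO wells and 100% = 5 µM fulvestrant positive control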
Conditions: stronger effect = higher value, normalized: vehicle 0, fulvestrant 100

{"Molecule": "CN1/C(=C\\C=Nc2ccccc2)C(C)(C)c2ccccc21", "differentiation response [%]": 2.89}
{"Molecule": "CC(C)c1ccc(/C=C/C(=O)O)cc1", "differentiation response [%]": -2.4}
{"Molecule": "Cc1nc(NCc2ccco2)c(C#N)c2c1COC(C)(C)C2", "differentiation response [%]": -1.65}
{"Molecule": "O=Cc1ccc(OC(=O)c2cccnc2)cc1", "differentiation response [%]": 16.8}
{"Molecule": "CCOCC(=O)Nc1ccccc1C(=O)N1CCOCC1", "differentiation response [%]": 0}
{"Molecule": "O=C(Nc1ccc(C(=O)NC2CCCCC2)cc1)c1cccnc1", "differentiation response [%]": -4}
{"Molecule": "CC(C)C(=O)Nc1cccnc1", "differentiation response [%]": 0}
{"Molecule": "O=C1ON=C(c2ccc(Cl)cc2)/C1=C/c1ccc(O)cc1", "differentiation response [%]": -8.8}
{"Molecule": "O=C(O)c1ccc(OCCn2ccnc2)cc1", "differentiation response [%]": 2.74}
{"Molecule": "CCOc1ccc(OCCSc2nc3ccccc3[nH]2)cc1", "differentiation response [%]": -7.2}
{"Molecule": "CO[C@H]1C=CO[C@@]2(C)Oc3c(C)c(O)c4c(O)c(c(C=NN5CCN(C)CC5)c(O)c4c3C2=O)NC(=O)C(C)=CC=C[C@H](C)[C@H](O)[C@@H](C)[C@@H](O)[C@@H](C)[C@H](OC(C)=O)[C@@H]1C", "differentiation response [%]": 2.46}
{"Molecule": "COc1ccc(C(=O)Nc2ncc3c(n2)CC(C)CC3=O)cc1 (stereo unspecified)", "differentiation response [%]": -7.2}
{"Molecule": "O=C(NC(Nc1ccccn1)C(Cl)(Cl)Cl)c1ccccc1 (stereo unspecified)", "differentiation response [%]": -10.4}
{"Molecule": "O=C(Cc1cccc2ccccc12)N1CC[C@@]2(O)CCCC[C@H]2C1", "differentiation response [%]": -2.46}
{"Molecule": "CCN1C(=O)C(CC(=O)Nc2ccc(OC)cc2)N(CCc2ccc(F)cc2)C1=S (stereo unspecified)", "differentiation response [%]": 8.8}
{"Molecule": "Cc1ccc(S(=O)(=O)n2ccnc2)cc1C", "differentiation response [%]": -2.03}
